These entries and their values trace back to paper PMC10350920.

Assay: Equilibrium dialysis, free fraction in brain
Type: in vitro ADME, mouse
Details: mouse, brain homogenate, pH 7.4; read-out: brain free fraction (Fu, fraction unbound)
Quantity name: fraction unbound at 5 h, 10 μg mL^–1
Numbers only.

Dear colleague, I am looking for the recorded fraction unbound at 5 h, 10 μg mL^–1 of the following compound: CC(C)(O)CC(=O)c1sc(Nc2ccc(F)c(F)c2)nc1N [Compound 38]
0.0313

###

Assay: Mouse liver microsomal intrinsic clearance
Format: in vitro ADME
Record form. Attribute: CLint (mouse). Fill in for each entry.
Give bare numbers, in mL·min/g.

{"columns": ["Compound string", "CLint (mouse), mL·min/g"],
 "data": [
  ["Nc1nc(NC2CCCCC2)sc1C(=O)c1ccc(F)cc1", 4.9],
  ["Nc1nc(Nc2ccc(F)c(F)c2)sc1C(=O)CN1CCCC(F)(F)C1", 33],
  ["Nc1nc(NC2CCCCC2)sc1C(=O)c1ccc(OC(F)F)cc1", 2.9],
  ["Nc1nc(NC2CCCCC2)sc1C(=O)c1ccncc1", 4.1]
]}

Dear colleague, I am looking for the recorded CLint (mouse) of the following compound: `CC(C)(C)CC(=O)c1sc(Nc2ccc(F)c(F)c2)nc1N`
4.6
